For each of the compounds below, state its Ki.
assay_system: UniProtKB O00311
Sequence (O00311 whole entry): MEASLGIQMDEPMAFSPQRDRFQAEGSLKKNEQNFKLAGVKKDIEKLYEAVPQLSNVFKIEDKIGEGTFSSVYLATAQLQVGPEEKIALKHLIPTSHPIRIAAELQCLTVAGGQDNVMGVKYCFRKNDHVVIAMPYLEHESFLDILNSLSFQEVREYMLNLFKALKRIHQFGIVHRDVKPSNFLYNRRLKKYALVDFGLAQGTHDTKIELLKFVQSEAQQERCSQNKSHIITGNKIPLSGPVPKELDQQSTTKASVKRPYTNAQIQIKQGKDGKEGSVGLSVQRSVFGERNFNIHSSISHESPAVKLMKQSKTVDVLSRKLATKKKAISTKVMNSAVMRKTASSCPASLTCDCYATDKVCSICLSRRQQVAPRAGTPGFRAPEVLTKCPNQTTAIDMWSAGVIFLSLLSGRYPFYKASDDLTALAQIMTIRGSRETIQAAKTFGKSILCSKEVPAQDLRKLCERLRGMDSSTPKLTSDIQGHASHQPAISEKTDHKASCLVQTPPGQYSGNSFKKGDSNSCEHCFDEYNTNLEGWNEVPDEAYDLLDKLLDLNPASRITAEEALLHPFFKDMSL
Assay type: functional
The source made the active and inactive calls.

Fill in: Ki of `c1cnc2[nH]cc(-c3ccnc(NCC4CCCCC4)n3)c2c1` is ___ 7.94 nM (active)

I would be grateful if you could share the reported Ki for `CS(=O)(=O)N(Cc1ccc2[nH]c(=O)c3cccn3c2c1)C1CC1` . 100 nM (active)

For the compound `O=C(Nc1n[nH]c2ccc(-c3cn(Cc4ccccc4)nn3)cc12)c1cc(F)ccc1F` , what Ki is on record? 3.16 nM (active)

Report Ki for `c1ccc(Cn2nnc(-c3ccc4[nH]ncc4c3)c2-c2ccccc2)cc1` please. 0.631 nM (active)

----------
assay_system: Cytochrome P450 3A4 (Homo sapiens);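 note: CYP3A4 tested as one member of a cytochrome P450 panel screen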
Sequence (P08684 whole entry): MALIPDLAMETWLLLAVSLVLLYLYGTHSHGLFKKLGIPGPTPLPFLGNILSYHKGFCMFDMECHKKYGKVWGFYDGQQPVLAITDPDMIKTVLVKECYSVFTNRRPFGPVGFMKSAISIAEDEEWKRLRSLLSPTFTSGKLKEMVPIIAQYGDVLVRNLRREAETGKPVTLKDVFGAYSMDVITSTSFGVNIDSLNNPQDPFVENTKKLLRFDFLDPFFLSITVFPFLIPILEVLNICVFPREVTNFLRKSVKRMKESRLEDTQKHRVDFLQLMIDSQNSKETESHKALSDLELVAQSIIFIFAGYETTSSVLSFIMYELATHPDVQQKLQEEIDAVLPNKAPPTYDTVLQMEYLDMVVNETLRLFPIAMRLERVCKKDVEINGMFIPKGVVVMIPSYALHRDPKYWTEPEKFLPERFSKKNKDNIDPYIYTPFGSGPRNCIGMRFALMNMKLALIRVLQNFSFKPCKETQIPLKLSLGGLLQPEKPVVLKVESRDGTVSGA
I'd be grateful if you could share measured AC50 for these entries.

Please look up its AC50: `O=C(N/N=C/c1ccc(Cl)cc1)Nc1ccccc1` 12.6 µM (inconclusive)

Which AC50 is reported for this compound? C=O.C[C@@H]1Cc2ccccc2N1NC(=O)c1ccc(Cl)c([S+](N)[O-])c1 (some centres undefined) 5.01 µM (inconclusive)

# AC50 lookup, item `Cc1nn(CC(=O)NCc2ccccc2Cl)c(C)c1[N+](=O)[O-]` 14.1 µM (inconclusive)

Entry COc1ccc(-c2nc(C(=O)N3CCN(C)CC3)sc2-c2ccc(OC)cc2)cc1 [FR-122047] : reported AC50 = ? 7.94 µM (inconclusive)

----------
assay_system: UniProtKB Q194T2
Sequence (Q194T2 whole entry): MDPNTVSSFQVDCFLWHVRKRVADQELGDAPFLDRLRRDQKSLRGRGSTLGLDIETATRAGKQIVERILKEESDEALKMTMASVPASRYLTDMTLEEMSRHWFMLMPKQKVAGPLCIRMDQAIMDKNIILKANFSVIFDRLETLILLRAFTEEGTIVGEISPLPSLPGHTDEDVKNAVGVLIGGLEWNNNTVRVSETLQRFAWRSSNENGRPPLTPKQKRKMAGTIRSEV
Type: functional, Influenza A virus (A/California/07/2009(H1N1))
The source made the active and inactive calls.
metric_name: IC50

// IC50 lookup, key: `CC(=NNC(=S)N1CC2CCC(CC2)C1)c1cnccn1` 3.16 µM (active)

Quick one: IC50 for `CN(C1=C(N2CCCCC2)C(=O)c2ccccc2C1=O)c1ccccc1` ? 6.94 µM (active)

Please give the measured IC50 for this molecule: `O=C(COC(=O)c1ccccn1)c1cccc(Br)c1` 25.6 µM (active)

If you can, please state the reported IC50 value of `O=C(CSc1n[nH]c(-c2ccccn2)n1)Nc1cccc(Cl)c1` . 8.24 µM (active)

Would you kindly share the measured IC50 for `OCc1ccnc2c(O)cccc12` ? 10.2 µM (active)

Quick one: IC50 for CN(C)c1ccc(C2CC(c3cccc(NS(C)(=O)=O)c3)=NN2C(=O)c2ccccc2)cc1 (stereo unspecified) ? > 100 µM (active)

----------
assay_system: Heat shock factor protein 1 (Mus musculus)
Sequence (P38532 whole entry): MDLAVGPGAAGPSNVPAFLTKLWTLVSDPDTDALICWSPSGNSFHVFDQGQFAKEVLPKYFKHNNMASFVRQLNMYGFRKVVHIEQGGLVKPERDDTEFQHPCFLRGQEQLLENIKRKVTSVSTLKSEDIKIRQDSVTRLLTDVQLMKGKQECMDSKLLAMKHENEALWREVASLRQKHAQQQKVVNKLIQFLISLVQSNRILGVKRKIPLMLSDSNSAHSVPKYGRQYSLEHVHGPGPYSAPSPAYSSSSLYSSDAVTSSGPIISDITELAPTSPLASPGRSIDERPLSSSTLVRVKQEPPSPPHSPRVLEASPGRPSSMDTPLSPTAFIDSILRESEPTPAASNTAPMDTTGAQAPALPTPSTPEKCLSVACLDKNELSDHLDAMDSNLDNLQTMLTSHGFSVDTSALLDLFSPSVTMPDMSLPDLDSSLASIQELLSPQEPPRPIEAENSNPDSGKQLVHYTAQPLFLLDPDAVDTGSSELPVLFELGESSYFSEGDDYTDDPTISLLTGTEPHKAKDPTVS
experimental_protocol: enhancement of HSF1-driven luciferase signal – cell-based, NIH3T3, luminescence, dose retest, confirmation (AID 435004);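 note: stress induced by proteasome inhibitor MG132 added 30 min after compound; luciferase reporter driven by HSF1 response element in NIH3T3 cells; actives raise luminescence as potentiators of the MG132 stress response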
Type: functional
Calls of active or inactive are those of the source.
Kindly supply the reported EC50 values for the records listed here.

State its EC50 on Heat shock factor protein 1 (Mus musculus): `COc1ccc(C(=O)n2nc(-c3ccc(Cl)cc3)nc2N)cc1OC` > 260 µM (inconclusive)

Lab note: need EC50 for COc1ccc(C(c2c(O)ccc3ccccc23)N2CCOCC2)c(OC)c1 (configuration not stated) on Heat shock factor protein 1 (Mus musculus), anyone have it? 12.5 µM (active)

API: value(readout= EC50, system= Heat shock factor protein 1 (Mus musculus), query= `O=C(C#Cc1ccccc1)c1cccc([N+](=O)[O-])c1` ) > 260 µM (inconclusive)

// lookup EC50 | system=Heat shock factor protein 1 (Mus musculus) | key= `O=c1[nH]c(CCl)nc2cc(-c3ccc(F)cc3)sc12` 32.1 µM (active)

Query the reported EC50 for Heat shock factor protein 1 (Mus musculus); item: C=C[S+]([O-])c1sc(Cl)c(N2CCOCC2)c1[N+](=O)[O-] (configuration not stated) 3.36 µM (inconclusive)

Give Heat shock factor protein 1 (Mus musculus) EC50 for `CC(C)(C)NC(=O)c1cccc(NC(=O)CSc2ccc(Cl)cc2)c1` > 260 µM (inactive)

GET /values?readout=EC50&system=Heat shock factor protein 1 (Mus musculus)&item= COCc1cc(CN2CCCC(C(=O)Nc3ccc(-c4ccco4)cc3)C2)ccc1OC (configuration not stated) > 260 µM (inactive)

Hello, I am looking for reported EC50 with Heat shock factor protein 1 (Mus musculus) for `Cc1ccc(Cn2cc(S(=O)(=O)c3ccc(Cl)cc3)c(=O)c3cc(F)ccc32)cc1` . Could you help? > 260 µM (inactive)

Kindly state the measured EC50 obtained for `O=[N+]([O-])/C=C/c1ccc2c(ccn2Cc2ccccc2)c1` with Heat shock factor protein 1 (Mus musculus). 5.7 µM (active)

I'm curious: which EC50 was measured for `CCc1c(C)sc(NC(=O)c2ccc(Br)o2)c1C(=O)OC` tested on Heat shock factor protein 1 (Mus musculus)? > 260 µM (inactive)

Could you share what EC50 was measured for `COc1ccc2cc(S(=O)(=O)N3CCCCC3)ccc2c1S(=O)(=O)N1CCCCC1` , tested on Heat shock factor protein 1 (Mus musculus)? > 260 µM (inactive)

Param readout= EC50; system= Heat shock factor protein 1 (Mus musculus); entry= `CCC(C)(C)c1ccc(OC(=O)c2cccnc2Cl)cc1` ; returns value. 46.8 µM (active)

----------
Kindly state EC50 for each of the entries shown.
experimental_protocol: Luminescence Cell-Based Dose Response HTS to Identify Activators of Luciferase Translation or Activity in H4 […] Cells. [Related pubchem assays: 1829 (Project Summary), 1814 (Primary HTS)]
Assay type: functional
Active and inactive are the calls of the source.

Endpoint output: EC50 of `CC(=O)c1cccc(NC(=O)C(=O)Nc2cccc3ccccc23)c1` . Value? 13.3 µM (active)

What value of EC50 has been recorded for this entry: `COc1ccc(O)c(C(=O)c2cnn(-c3ccccn3)c2)c1` 43.5 µM (active)

Give its EC50 value. Item: `c1csc(-c2cn3ccc4ccccc4c3n2)c1` 26 µM (active)

Reported EC50 for `O=C(Nc1ncccc1O)c1ccc2c(c1)OCCO2` : what is it? 0.155 µM (active)

// query EC50 value for entry `Cc1cc(N2CCOCC2)nc2cc(O)ccc12` 6.94 µM (active)

----------
assay_system: 72 kDa type IV collagenase (Homo sapiens, UniProt P08253)
Sequence (P08253 whole entry): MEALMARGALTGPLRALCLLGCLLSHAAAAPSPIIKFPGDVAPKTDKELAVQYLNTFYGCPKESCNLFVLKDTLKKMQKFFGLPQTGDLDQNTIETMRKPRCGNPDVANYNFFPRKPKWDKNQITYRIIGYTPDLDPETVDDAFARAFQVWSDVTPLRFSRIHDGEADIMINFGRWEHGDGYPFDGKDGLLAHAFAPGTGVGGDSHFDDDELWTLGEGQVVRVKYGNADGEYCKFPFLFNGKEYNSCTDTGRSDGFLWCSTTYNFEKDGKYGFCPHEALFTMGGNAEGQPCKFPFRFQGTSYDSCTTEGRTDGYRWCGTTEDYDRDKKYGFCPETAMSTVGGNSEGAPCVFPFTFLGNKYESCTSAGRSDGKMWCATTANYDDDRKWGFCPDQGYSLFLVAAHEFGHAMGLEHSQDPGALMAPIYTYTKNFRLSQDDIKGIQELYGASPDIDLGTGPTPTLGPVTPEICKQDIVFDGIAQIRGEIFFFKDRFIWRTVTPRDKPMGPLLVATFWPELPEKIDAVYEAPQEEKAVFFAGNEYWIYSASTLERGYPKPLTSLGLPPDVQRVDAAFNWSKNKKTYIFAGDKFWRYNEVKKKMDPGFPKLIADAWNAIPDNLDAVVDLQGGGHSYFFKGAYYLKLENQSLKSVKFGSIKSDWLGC
experimental_protocol: Dose Response validation of uHTS RPN11 inhibitor hits using a MMP-2 Fluorescence assay.
Assay type: functional
The source made the active and inactive calls.
The reply should name one outcome from active, inactive

In this assay, the call recorded for `CCN(CCO)c1ccc(N=Nc2cc(C)[nH]n2)cc1` was what? inactive

Which outcome was entered for the compound `COc1ccc(Cc2c(-c3ccc(C)cc3)nc3ccc(Cl)cn23)c(C)c1` in this test? active

In this assay, the call recorded for `O=C(N/N=C/c1cc(Cl)ccc1O)c1ccc(Br)cc1` was what? active

Hi, sorry to bother you, what did the test record for `O=C(Nc1ccc2c(c1)CCC2)c1cc(S(=O)(=O)N2CCN(c3ccccc3)CC2)ccc1Cl` ? inactive

Just curious, what result did `COc1cccc2cc(C(=O)Nc3ccc(F)cc3)/c(=N/c3ccc(C(=O)O)cc3)oc12` get here? inactive

In this assay, the call recorded for `NC1=NC(=O)/C(=C/c2cn(CCC(=O)O)nc2-c2ccc(Cl)cc2)S1` was what? inactive

----------
assay_system: UniProt P9WQ59
Sequence (P9WQ59 whole entry): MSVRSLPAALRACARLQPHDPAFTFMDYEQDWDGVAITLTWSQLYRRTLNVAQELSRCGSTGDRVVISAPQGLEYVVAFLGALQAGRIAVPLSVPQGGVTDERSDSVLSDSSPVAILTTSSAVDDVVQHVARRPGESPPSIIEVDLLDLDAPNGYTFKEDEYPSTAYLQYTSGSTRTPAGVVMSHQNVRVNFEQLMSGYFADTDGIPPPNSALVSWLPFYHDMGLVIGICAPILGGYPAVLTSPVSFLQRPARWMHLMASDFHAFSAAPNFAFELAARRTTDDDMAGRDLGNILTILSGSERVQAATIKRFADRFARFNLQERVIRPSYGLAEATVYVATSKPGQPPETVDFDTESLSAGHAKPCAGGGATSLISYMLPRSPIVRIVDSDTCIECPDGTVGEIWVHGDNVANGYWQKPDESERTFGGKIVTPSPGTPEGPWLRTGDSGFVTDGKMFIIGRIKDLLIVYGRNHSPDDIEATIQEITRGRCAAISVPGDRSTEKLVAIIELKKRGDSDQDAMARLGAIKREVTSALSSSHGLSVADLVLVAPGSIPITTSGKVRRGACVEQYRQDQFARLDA
experimental_protocol: Fluorescence polarization aasay to screen for inhibitors that compete for the binding of FadD28 to a bisubstrate Measured in Biochemical System Using Plate Reader - 2147-01_Inhibitor_Dose_CherryPick_Activity.
Assay type: functional, Mycobacterium tuberculosis H37Rv
The source made the active and inactive calls.
Reply using exactly one outcome from active, inactive

Hi, do you know how `O=C(Nc1cccc(Oc2ccc(C(=O)O)c(C(=O)O)c2)c1)c1ccc(-c2ccccc2)cc1` came out in this test? active

Write down the call the test reported for this compound. Item: `O=C(NN1C(=O)/C(=C/c2nc3ccccc3[nH]2)SC1=S)c1ccccc1` active

Dear colleague, could you share the recorded outcome for `Cc1cccc(NC(=O)Cn2c(=O)oc3cc(S(=O)(=O)N4CCCC4)ccc32)n1` when you have a moment? active

Would you mind telling me which call this test gave `O=C1NN(c2cccc(Br)c2)C(=O)/C1=C\c1ccccc1` ? inactive

----------
assay_system: UniProtKB Q99705
Sequence (Q99705 whole entry): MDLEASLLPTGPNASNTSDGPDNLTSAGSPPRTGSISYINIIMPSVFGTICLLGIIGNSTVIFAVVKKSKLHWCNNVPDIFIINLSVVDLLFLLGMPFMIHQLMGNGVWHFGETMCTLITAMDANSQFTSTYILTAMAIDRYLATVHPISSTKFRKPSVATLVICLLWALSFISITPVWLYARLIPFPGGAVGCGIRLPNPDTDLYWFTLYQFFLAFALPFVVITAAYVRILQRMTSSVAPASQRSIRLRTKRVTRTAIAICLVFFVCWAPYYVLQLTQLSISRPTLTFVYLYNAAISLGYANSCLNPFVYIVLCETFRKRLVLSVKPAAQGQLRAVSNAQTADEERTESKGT
experimental_protocol: Fluorescence-based counterscreen for antagonists of the G-protein coupled receptor 7 (GPR7): cell-based high throughput dose response assay to identify antagonists of the melanin-concentrating hormone receptor 1 (MCHR1).
Type: functional
metric_name: IC50

Name the recorded IC50 for CCCCC(c1nnnn1C1CCCC1)N1CCN(C2CCCCC2)CC1 (centres undefined) . > 43.8 µM (not active)

// lookup IC50 for CCc1ccc(N(C(=O)c2csnn2)C(C(=O)NC2CCCCC2)c2ccncc2)cc1 (centres undefined) > 43.8 µM (not active)

Could you share which IC50 value was measured for `CCN(CC(=O)Nc1cccc(C#N)c1)CC(=O)Nc1cccc(OC)c1` ? 27.9 µM (not active)

Entry `CCCCn1c(N)c(N(CC(C)C)C(=O)c2ccc(COc3ccccc3)o2)c(=O)[nH]c1=O` has what IC50? > 43.8 µM (not active)

Where do these numbers come from? They come from ChEMBL document CHEMBL1201862.
